Each recorded value in this set is attributed to patent EP4775582A1.

Tested on: AsPC-1 p-ERK
Protocol: Cell p-ERK assay (HTRF), AsPC-1 cells
Assay type: cell-based, human
Test context: Homo sapiens, ASPC1, 3 h, read-out: AsPC-1 p-ERK IC50(nM)
Endpoint name: IC50 (nM)

## Input Supply reported IC50 belonging to this compound: CO[C@@H](C)c1ncc(C#CCN2CCN(C(=O)CN)CC2)cc1-c1c2c3cc(ccc3n1C(C)C)-c1csc(n1)C[C@H](NC(=O)[C@H]1[C@@H]3COC[C@@H]31)C(=O)N1CCC[C@H](N1)C(=O)OCC(C)(C)C2 (atropisomer, axis not shown; (Ra))
## Output 1.56

## Input Name the recorded IC50 of the item CCn1c(-c2cc(C#CCN3CCN(C(=O)CN)CC3)cnc2[C@H](C)OC)c2c3cc(ccc31)-c1coc(n1)C[C@H](NC(=O)[C@H]1[C@@H]3COC[C@@H]31)C(=O)N1CCC[C@H](N1)C(=O)OCC(C)(C)C2 (atropisomer, axis not shown; (Ra)) in your answer.
## Output 1.64

* * *

System: NCI-H441 cells
Protocol: 3D cell proliferation assay (CellTiter Glo-3D), NCI-H441
Type: cell-based, human
Test context: Homo sapiens, 120 h, NCI-H441 cells (KRAS G12V), 2% FBS, 5 days, read-out: H441 AP IC50
pIC50: −log10 of the molar value.
Endpoint name: pIC50

## Input Write down pIC50 measured for item CCn1c(-c2cc(C#CCN3CCS(=O)(=O)CC3)cnc2[C@H](C)OC)c2c3cc(ccc31)-c1csc(n1)C[C@H](NC(=O)[C@@H]1[C@@H](C)[C@H]1CO)C(=O)N1CCC[C@H](N1)C(=O)OCC(C)(C)C2 (atropisomer, axis not shown; (Ra))
## Output 9.49

I: CCn1c(-c2cc(C#CCN3CCS(=O)(=O)CC3)cnc2[C@H](C)OC)c2c3cc(ccc31)-c1csc(n1)C[C@H](NC(=O)[C@H]1[C@H](C)[C@@H]1CO)C(=O)N1CCC[C@H](N1)C(=O)OCC(C)(C)C2 (atropisomer, axis not shown; (Ra))
II: CCn1c(-c2cc(C#CCN3CCN(C(=O)CO)CC3)c[n+]([O-])c2C(C)OC)c2c3cc(ccc31)-c1csc(n1)CC(NC(=O)C1C(C)C1C)C(=O)N1CCCC(N1)C(=O)OCC(C)(C)C2 (atropisomer, axis not shown; (Ra))
## Input Could you determine which record has the numerically smaller pIC50? Candidates: I and II Kindly give the label for the entry you pick.
## Output II

I: CCn1c(-c2cc(C#CCN3CCN(C(=O)CO)CC3)cnc2C(C)OC)c2c3cc(ccc31)-c1coc(n1)CC(NC(=O)C1C3COCC31)C(=O)N1CCCC(N1)C(=O)OCC(C)(C)C2 (atropisomer, axis not shown; (Ra))
II: CCn1c(-c2cc(C#CCN3CCN(C)CC3)cnc2[C@H](C)OC)c2c3cc(ccc31)-c1csc(n1)C[C@H](NC(=O)[C@H]1[C@@H]3COC[C@@H]31)C(=O)N1CCC[C@H](N1)C(=O)OCC(C)(C)C2 (atropisomer, axis not shown; (Ra))
III: COCCn1c(-c2cc(C#CCN3CCC(C#N)(CO)CC3)cnc2C(C)OC)c2c3cc(ccc31)-c1csc(n1)CC(NC(=O)C1C(C)C1C)C(=O)N1CCCC(N1)C(=O)OCC(C)(C)C2 (centres unmarked)
## Input Reorder: pIC50, max to min. Output spec: a listing of the labels in the requested order.
## Output II, III, I

* * *

Experimental system: KRAS WT-cRAF (Homo sapiens, UniProt P01116+P62937)
Sequence (P01116 1-188 isoform P01116-2): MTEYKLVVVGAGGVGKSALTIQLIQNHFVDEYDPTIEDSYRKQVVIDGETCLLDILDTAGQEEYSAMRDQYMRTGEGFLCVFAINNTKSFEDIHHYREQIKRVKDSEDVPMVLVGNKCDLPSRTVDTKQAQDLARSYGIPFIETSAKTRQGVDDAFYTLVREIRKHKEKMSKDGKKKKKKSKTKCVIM
Sequence (P62937 whole entry): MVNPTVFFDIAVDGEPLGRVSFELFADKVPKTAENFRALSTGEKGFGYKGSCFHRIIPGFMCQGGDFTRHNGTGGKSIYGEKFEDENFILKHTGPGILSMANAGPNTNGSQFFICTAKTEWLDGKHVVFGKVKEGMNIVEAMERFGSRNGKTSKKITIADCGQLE
Protocol: Assay for binding of KRAS to cRAF (HTRF, with Cyclophilin A), KRAS WT
Test context: read-out: KRAS WT-cRAF binding assay, GPPNP-KRAS WT, IC50 values
Endpoint name: IC50 (µM)

## Input Fill in IC50 for CCn1c(-c2cc(C#CCN3CCC(C#N)(CN)CC3)cnc2[C@H](C)OC)c2c3cc(ccc31)-c1coc(n1)C[C@H](NC(=O)[C@H]1[C@H](C)[C@@H]1C)C(=O)N1CCC[C@H](N1)C(=O)OCC(C)(C)C2 (atropisomer, axis not shown; (Ra)) tested with KRAS WT-cRAF (Homo sapiens, UniProt P01116+P62937).
## Output 0.0345

## Input Report IC50 on KRAS WT-cRAF (Homo sapiens, UniProt P01116+P62937) for this entry: CCn1c(-c2cc(C#CCN3CCN(C(=O)CN)CC3)cnc2[C@H](C)OC)c2c3cc(ccc31)-c1coc(n1)C[C@H](NC(=O)[C@H]1[C@@H]3COC[C@@H]31)C(=O)N1CCC[C@H](N1)C(=O)OCC(C)(C)C2 (atropisomer, axis not shown; (Ra))
## Output 0.0409

1: CCn1c(-c2cc(C#CCN3CCC(C#N)(CN)CC3)cnc2[C@H](C)OC)c2c3cc(ccc31)-c1coc(n1)C[C@H](NC(=O)[C@H]1[C@@H]3COC[C@@H]31)C(=O)N1CCC[C@H](N1)C(=O)OCC(C)(C)C2 (atropisomer, axis not shown; (Ra))
2: CCn1c(-c2cc(C#CCN3CCS(=O)(=O)CC3)cnc2[C@H](C)OC)c2c3cc(ccc31)-c1csc(n1)[C@@H](N)[C@H](NC(=O)[C@H]1[C@H](C)[C@@H]1C)C(=O)N1CCC[C@H](N1)C(=O)OCC(C)(C)C2 (atropisomer, axis not shown; (Ra))
## Input Parameter check: reported IC50 is higher for which label, 1 or 2 ? Bench note: the answer is the label of the chosen record.
## Output 1

* * *

Protocol: Solubility experiment (HPLC, external standard)
Type: physicochemical
Test context: ph 7.4 medium, pH 7.4, pH 7.4 medium, 37 °C, 24 h
Description: This experiment was intended to determine the solubility of the compounds in media at different pH values. The materials used in the experiment included: a pH 1.2 medium, a pH 4.5 medium, a pH 7.4 medium, and a diluent (acetonitrile/water = 50/50). 1. The preparation methods for media are as follows: […] The solubility samples described above and the control solution were sequentially analyzed by high performance liquid chromatography. […]
Endpoint name: solubility at 24 h (µg/mL)
// note: answer is a bare numeric in µg/mL

Past entries and their recorded results:
## Input Let me know recorded solubility at 24 h for CCn1c(-c2cc(OCCN3CCC(C#N)(CN)CC3)c[n+]([O-])c2[C@H](C)OC)c2c3cc(ccc31)-c1csc(n1)C[C@H](NC(=O)[C@H]1[C@H](C)[C@@H]1C)C(=O)N1CCC[C@H](N1)C(=O)OCC(C)(C)C2 (atropisomer, axis not shown; (Ra)) [Compound Z73] , thanks.
## Output 96.6

## Input Give me measured solubility at 24 h, please, for this molecule: CCn1c(-c2cc(C#CCN3CCC(C(=O)NCCO)CC3)cnc2[C@H](C)OC)c2c3cc(ccc31)-c1csc(n1)C[C@H](NC(=O)[C@H]1[C@@H]3COC[C@@H]31)C(=O)N1CCC[C@H](N1)C(=O)OCC(C)(C)C2 (atropisomer, axis not shown; (Ra)) [Compound Z21]
## Output 9.71

## Input State its solubility at 24 h for this molecule: COCCn1c(-c2cc(C#CCN3CCN(C(=O)CO)CC3)c[n+]([O-])c2[C@H](C)OC)c2c3cc(ccc31)-c1csc(n1)C[C@H](NC(=O)[C@H]1[C@H](C)[C@@H]1C)C(=O)N1CCC[C@H](N1)C(=O)OCC(C)(C)C2 (atropisomer, axis not shown; (Ra)) [Compound Z54]
## Output 36.2

Now examine the next entry.
## Input Please supply the value of reported solubility at 24 h for the item COCCn1c(-c2cc(C#CCN3CCN(C(=O)CO)CC3)cnc2[C@H](C)OC)c2c3cc(ccc31)-c1csc(n1)C[C@H](NC(=O)[C@H]1[C@@H]3COC[C@@H]31)C(=O)N1CCC[C@H](N1)C(=O)OCC(C)(C)C2 (atropisomer, axis not shown; (Sa)) [Compound Z31-2]
## Output 22

* * *

System: NCI-H441 cells
Protocol: 3D cell proliferation assay (CellTiter Glo-3D), NCI-H441
Format: cell-based, human
Test context: Homo sapiens, 120 h, NCI-H441 cells (KRAS G12V), 2% FBS, 5 days, read-out: H441 AP IC50
Endpoint name: IC50 (nM)

Example cases with answers are listed next.
## Input Quickly give me recorded IC50 for CCn1c(-c2cc(C#CCN3CCS(=O)(=O)CC3)cnc2[C@H](C)OC)c2c3cc(ccc31)-c1csc(n1)C[C@H](Nc1n[nH]c3cc(C)ccc13)C(=O)N1CCC[C@H](N1)C(=O)OCC(C)(C)C2 (atropisomer, axis not shown; (Ra))
## Output 2.78

## Input Please report IC50 for the following compound: CCn1c(-c2cc(C#CCN3CCC(C#N)CC3)cnc2C(C)OC)c2c3cc(ccc31)-c1csc(n1)CC(NC(=O)C1C3COCC31)C(=O)N1CCCC(N1)C(=O)OCC(C)(C)C2 (atropisomer, axis not shown; (Ra))
## Output 0.14

1: CCn1c(-c2cc(C#CCN3CCS(=O)(=O)CC3)cnc2C(C)OC)c2c3cc(ccc31)-c1cc(N)cc(c1)CC(NC(=O)C1C(C)C1C)C(=O)N1CCCC(N1)C(=O)OCC(C)(C)C2 (atropisomer, axis not shown; (Ra))
2: CCn1c(-c2cc(C#CCN3CCCN(C(=O)CO)CC3)cnc2[C@H](C)OC)c2c3cc(ccc31)-c1csc(n1)C[C@H](NC(=O)[C@H]1[C@@H]3COC[C@@H]31)C(=O)N1CCC[C@H](N1)C(=O)OCC(C)(C)C2 (atropisomer, axis not shown; (Ra))
## Input Which entry shows the lesser value of IC50 here, 1 or 2 ? Pick one and reply with its label.
## Output 2
